Data origin: ChEMBL document CHEMBL3102767

# Experiment Summary: Cytotoxicity against human RCC4 cells after 4 days by XTT assay
# Format: functional, cell-based
# Condition Notes: RCC4, 96 h
Answer each item with its documented IC50.
Number in µM, nothing else.

The value of IC50 measured for the compound `Cc1cccc(Nc2nc(-c3ccncc3-c3cn(CCOCCOCCOCCOCCOCCOCCN)nn3)cs2)c1.O=C(O)C(F)(F)F` turned out to be 2.9

The recorded IC50 for entry `Cc1cccc(Nc2nc(-c3ccnc(-c4cn(CCCCCCN)nn4)c3)cs2)c1.O=C(O)C(F)(F)F` equals 1.7

* * *

I'd appreciate it if you could supply IC50 values for the items below.
# Experiment Summary: Cytotoxicity against human RCC4 cells after 4 days by XTT assay
# Type: functional, cell-based
# Condition Notes: RCC4, 96 h

// field: IC50; key: `Cn1ccc(-c2cccc(S(=O)(=O)NCc3ccc(C(=O)Nc4cccnc4)cc3)c2)n1` ; value = < 1000 nM

Per the record, `CN1CCN(Cc2ccc(S(=O)(=O)NCc3ccc(C(=O)Nc4cccnc4)cc3)cc2)CC1` has IC50 of < 1000 nM

Lookup result for `CN1CCN(c2ccc(S(=O)(=O)NCc3ccc(C(=O)Nc4cccnc4)cc3)cc2)CC1` ; measured IC50: < 1000 nM
